B1: tRNA (parent)
chain: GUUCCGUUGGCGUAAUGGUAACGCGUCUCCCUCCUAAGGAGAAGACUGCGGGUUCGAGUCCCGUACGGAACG

variants of: B1; assay: yeast fitness relative to wild type (ratio to wild type); higher = fitter; tRNA-Arg(CCU), competitive growth, 37 C, YPD
Fewer inactive variants are shown than the library holds.
Binary classification by yeast fitness, with 0.6 as an inclusive lower bound for Y; all other cases are N.

Look over these answered cases.
> print(dat)
       mutation.spec  answer.label
1           U2C C61U             Y
2          G23C C55G             N
3     C31U A69C A70U             Y
4          C29U U59G             Y
5  U3A G6A C31U A40C             N
6          U32A A57U             N
7      C5G A21C C61A             N
8      C5U A21C G44C             N

QUERY: yeast fitness >= 0.6 for G6C A20U A21G A37U C60G C62G ?
RESULT: N

QUERY: Another variant: C11A C33U A43U
RESULT: N

QUERY: Another variant: C11G G17A A37U A70G
RESULT: N

Cited source for all entries: the RNAGym collection of RNA variant scans (doi:10.1126/science.aae0568)
